Data origin, for the record: ChEMBL document CHEMBL1201862

- Test system: OVCAR-8
- Test name: NCI tumour cell line growth inhibition, 48 h
Active and inactive are the calls of the source. Cut-off read from the data, not from the text of the source: active = GI50 up to about 1.1 µM and inactive = higher.

Compound	GI50
Fc1ccccc1C1CC(C(c2ccccc2)c2ccccc2)=Nc2ccccc2S1 (stereo not given)	7.71 µM (inactive)
COc1ccc(/C=C2\CCNC2=O)cc1	> 100 µM (inactive)
O=C(/C=C/C=C/c1ccccc1)CCc1ccccc1	73.8 µM (inactive)
CN1CC[C@]2(c3cccc(O)c3)CC(=O)/C(=C/c3ccc(Cl)c(Cl)c3)[C@@H]1C2	1.49 µM (inactive)
N=c1oc2ccc3ccccc3c2cc1C(N)=O	80.5 µM (inactive)
CN(C)[C@@H]1C(O)=C(C(N)=O)C(=O)[C@@]2(O)C(O)=C3C(=O)c4c(O)cccc4C[C@H]3C[C@@H]12	2.89 µM (inactive)
Cc1ccc(-c2nc3n(c2/C=N\N=C(N)N)CCS3)cc1	15.6 µM (inactive)
Cc1ccc([C@@H]2[C@@H](C(=O)c3ccccn3)[C@H](c3ccc(C)cc3)C[C@](O)(c3ccccn3)[C@H]2C(=O)c2ccccn2)cc1	3.33 µM (inactive)
Nc1ccccc1/N=C/c1cc2cc([N+](=O)[O-])ccc2s1	15 µM (inactive)
Cc1nc2c(sc(=S)n2-c2ccccc2)c(=O)[nH]1	> 100 µM (inactive)
CC(C)=CC[C@H]1C[C@]2(CC=C(C)C)C(=O)[C@@](CC=C(C)C)(C(=O)C(C(=O)c3ccccc3)=C2O)C1(C)C [6-EPI-CLUSIANONE]	5.78 µM (inactive)
CC12OC(=O)[C@@]3(O)CCC4C(C[C@H]5O[C@]56CC=CC(=O)[C@]46C)C45OC[C@H]6C(=O)O[C@@H]1C[C@@]6(C)[C@H](C4=O)C23O5 (stereo not given in full)	0.955 µM (active)
CC(=O)O[C@H]1CC[C@@]2(C)C(=CC[C@@H]3[C@@H]2CC[C@](C)(c2nnc(C)o2)[C@H]3CC#N)C1	> 100 µM (inactive)
COC(=O)C/N=C1\NC(=S)N(Cc2ccc(OC)cc2)C12CCCC2	> 100 µM (inactive)
N#CSc1[nH]cnc1C(N)=O	> 100 µM (inactive)
O=C1CC(O)(c2ccccc2)C(c2ccccc2)=C1c1ccccc1 (stereo not given)	47 µM (inactive)
OC(c1cc(C(F)(F)F)nc2c(Cl)cc(Cl)cc12)C1CCCCN1 (stereo not given)	13.2 µM (inactive)
C/C=C(\NC(=O)C(CCCCN)NC(=O)C(C)NC(=O)C1CSC(C)C(NC(=O)C2CSCC(NC(=O)C(C)NC(=O)C(N)C(C)CC)C(=O)NC(CCCCN)C(=O)NC(Cc3ccccc3)C(=O)NC(CC(C)C)C(=O)N2)C(=O)N2CCCC2C(=O)NCC(=O)N1)C(=O)NCC(=O)NC1CSCC2NC(=O)C(Cc3ccc(O)cc3)NC(=O)C(CSC=CNC2=O)NC(=O)C(CC(N)=O)NC(=O)C(Cc2ccccc2)NC1=O (stereo not given)	> 100 µM (inactive)
O=S(=O)(c1ccccc1)[C@H]1[C@@H]2O[C@@H]2C[C@@H]1O	> 100 µM (inactive)
CC1(C)O[C@@H](CC/C=C/CO)[C@H](CC/C=C/CO)O1	> 100 µM (inactive)
Cc1c(C(=O)CC(=O)C(=O)Nc2ccccc2C(F)(F)F)[n+]([O-])c2ccccc2[n+]1[O-]	18.2 µM (inactive)
CN(C)c1ccc(C(=C2C=CC(=[N+](C)C)C=C2)c2c(O)c(S(=O)(=O)[O-])cc3cc(S(=O)(=O)O)ccc23)cc1	> 100 µM (inactive)
CCC(=O)OCOc1ccc(/C=C2\CCC(CN(C)C)C2=O)cc1 (stereo not given)	4.19 µM (inactive)
CCCCCCCCCCCCCCCCCCOP1(=O)OCCO1	> 100 µM (inactive)
CC(=O)OCC(OC(C)=O)C1C[C@H]2O[C@@H]3[C@H](C[C@H]2O1)O[C@@]1(C[C@@H]3C)C[C@H](C)[C@@H]2O[C@]3(C[C@@H]2O1)C[C@H]1O[C@H]2[C@H](C)[C@H]4OC(=O)CC5CC[C@H]6OC7[C@H]8O[C@]9(CC[C@H]%10CC(O)(CO)[C@H](CC[C@H]%11C[C@@H](C)C(O)(CO)C(C[C@@H]4O[C@H]2C[C@H]1O3)O%11)O%10)CC8O[C@@H]7[C@@H](O9)[C@H]6O5 (stereo not given in full)	0.0121 µM (active)
O=C1OC(CC(=O)c2ccc(Cl)cc2)C(Cl)=C1Cl (stereo not given)	> 100 µM (inactive)
O=C(O)CCN(CCCN(CCC(=O)O)CCC(=O)O)CCC(=O)O	> 100 µM (inactive)
COC(=O)c1ccc(C)cc1CC1Cc2c(C)cccc2C1=O (stereo not given)	14.3 µM (inactive)
FC(F)(Sc1ccccc1)c1nc2ccccc2o1	83.4 µM (inactive)
O=[N+]([O-])c1ccc(-c2nc3cc([N+](=O)[O-])ccc3[nH]2)cc1	22.4 µM (inactive)
CC(=O)Nc1ccc2cc(C#N)c(=O)[nH]c2n1	> 100 µM (inactive)
N=C(N)N/N=C/c1c(Cl)nc2sccn12	50.4 µM (inactive)
O=C1C2=Cc3ccccc3OC2(O)Oc2cc(O)cc(O)c21 (stereo not given)	> 100 µM (inactive)
COc1ccc(C2=NN(c3ccccc3)C[N+](c3ccc(OC)cc3)=N2)cc1	85.7 µM (inactive)
CCCCCCCCCCCCCP(=O)(OC)OC	17 µM (inactive)
